Taken from patent US20050037394.

TARGET_UNDER_TEST: VEGF (UniProt P15692-4 P15692-4:27-191)
Sequence (P15692 other isoform, or with tags, fused parts or gaps): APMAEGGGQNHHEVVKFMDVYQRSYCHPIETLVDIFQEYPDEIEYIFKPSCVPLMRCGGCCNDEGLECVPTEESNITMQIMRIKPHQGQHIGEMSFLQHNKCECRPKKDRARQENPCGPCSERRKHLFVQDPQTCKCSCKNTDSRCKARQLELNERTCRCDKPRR
ASSAY_COMMENT: FP; placeholder corrected: dot-blot nitrocellulose/nylon filter in PBS
CONDITION_CONTEXT: chain copies: 2
EXPERIMENTAL_ENDPOINT: Kd (nM)
Provide only the numeric value, understood in nM.

*Q* Return reported Kd. Input binder: ACGCAGUUUGAGAAGUCGCGCGU (ssRNA, 2'-OMe at all residues; 3'-inverted dT [2'-OMe at 1-23; 3'-inverted dT after nt 23 (not written in sequence); base pair swap at 2 (U>C) and 22 (A>G)]) [ARC259]
*A* 1.4
